target: SARS-CoV-2 Mac1 (Severe acute respiratory syndrome coronavirus 2); assay: biochemical; details: read-out: %inhibition
Where a name gives a salt, the structure may show the parent alone.
Listing: inhibition at 100 µM of selected compounds
Give the value, in units of %, as a plain number.

These solved cases illustrate the format of a correct answer.
# COMPOUND, inhibition at 100 µM / %
data = [
    ("C[N+](C)(C)CCOC(N)=O [Carbachol]", 3.56),
    ("NS(=O)(=O)c1cc2c(cc1C(F)(F)F)NC(Cc1ccccc1)NS2(=O)=O (centres unmarked) [Bendroflumethiazide]", 0),
]

Please turn your attention to the following entry.
Which inhibition at 100 µM reading was recorded for the compound OC(CCN1CCCC1)(c1ccccc1)C1CCCCC1 (centres unmarked) [Procyclidine HCl] ?
6.52
